- tgt: Phosphatidylinositol 4,5-bisphosphate 3-kinase catalytic subunit gamma isoform (Homo sapiens)
- Sequence (P48736 whole entry, canonical isoform): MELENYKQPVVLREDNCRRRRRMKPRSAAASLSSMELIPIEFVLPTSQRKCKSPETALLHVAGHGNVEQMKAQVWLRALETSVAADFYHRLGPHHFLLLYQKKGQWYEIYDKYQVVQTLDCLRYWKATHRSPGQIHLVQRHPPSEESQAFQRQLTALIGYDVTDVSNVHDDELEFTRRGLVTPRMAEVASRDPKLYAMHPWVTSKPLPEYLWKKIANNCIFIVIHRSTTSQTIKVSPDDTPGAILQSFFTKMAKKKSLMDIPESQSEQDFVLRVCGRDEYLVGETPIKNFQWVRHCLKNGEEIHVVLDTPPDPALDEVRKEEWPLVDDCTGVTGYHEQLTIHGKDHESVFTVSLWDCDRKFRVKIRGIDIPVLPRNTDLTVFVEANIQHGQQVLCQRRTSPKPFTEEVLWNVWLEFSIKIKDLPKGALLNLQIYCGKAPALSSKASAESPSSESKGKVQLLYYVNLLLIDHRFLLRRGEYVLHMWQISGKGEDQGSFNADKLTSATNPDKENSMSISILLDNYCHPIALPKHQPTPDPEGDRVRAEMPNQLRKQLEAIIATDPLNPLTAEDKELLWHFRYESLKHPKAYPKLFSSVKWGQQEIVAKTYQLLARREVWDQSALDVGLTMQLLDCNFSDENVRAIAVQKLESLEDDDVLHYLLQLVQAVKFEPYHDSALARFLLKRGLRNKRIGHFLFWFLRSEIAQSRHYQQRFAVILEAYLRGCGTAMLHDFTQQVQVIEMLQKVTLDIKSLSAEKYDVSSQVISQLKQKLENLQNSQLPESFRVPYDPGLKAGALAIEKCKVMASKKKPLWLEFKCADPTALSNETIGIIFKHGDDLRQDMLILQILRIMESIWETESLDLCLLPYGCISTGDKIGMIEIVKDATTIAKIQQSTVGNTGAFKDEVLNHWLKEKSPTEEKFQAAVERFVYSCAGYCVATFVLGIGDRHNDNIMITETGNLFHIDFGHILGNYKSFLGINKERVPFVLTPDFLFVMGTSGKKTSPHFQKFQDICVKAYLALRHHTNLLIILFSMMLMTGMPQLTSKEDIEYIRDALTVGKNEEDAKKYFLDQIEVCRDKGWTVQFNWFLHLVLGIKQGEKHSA
- assay procedure: Inhibition of PI3Kgamma (unknown origin) using PIP2 as substrate incubated for 1 hr by ADP-Glo assay
// reported IC50 for each item listed
measurement label: IC50

INSERT INTO assay_data (molecule, result) VALUES
  ('C[C@@H](Nc1nc(N)nc(N)c1C#N)c1cn(-c2cccnc2)c2cc(Cl)cnc12 (racemic)', '> 10 µM'),
  ('CC(Nc1nc(N)nc(N)c1C#N)c1cn(-c2cccnc2)c2cc(Cl)cnc12 (stereo not drawn)', '> 10 µM'),
  ('C[C@H](Nc1nc(N)nc(N)c1C#N)c1cn(-c2cccnc2)c2cc(Cl)cnc12', '> 10 µM');

====

- tgt: Phosphatidylinositol 4,5-bisphosphate 3-kinase catalytic subunit beta isoform (Homo sapiens)
- Sequence (P42338 whole entry, canonical isoform): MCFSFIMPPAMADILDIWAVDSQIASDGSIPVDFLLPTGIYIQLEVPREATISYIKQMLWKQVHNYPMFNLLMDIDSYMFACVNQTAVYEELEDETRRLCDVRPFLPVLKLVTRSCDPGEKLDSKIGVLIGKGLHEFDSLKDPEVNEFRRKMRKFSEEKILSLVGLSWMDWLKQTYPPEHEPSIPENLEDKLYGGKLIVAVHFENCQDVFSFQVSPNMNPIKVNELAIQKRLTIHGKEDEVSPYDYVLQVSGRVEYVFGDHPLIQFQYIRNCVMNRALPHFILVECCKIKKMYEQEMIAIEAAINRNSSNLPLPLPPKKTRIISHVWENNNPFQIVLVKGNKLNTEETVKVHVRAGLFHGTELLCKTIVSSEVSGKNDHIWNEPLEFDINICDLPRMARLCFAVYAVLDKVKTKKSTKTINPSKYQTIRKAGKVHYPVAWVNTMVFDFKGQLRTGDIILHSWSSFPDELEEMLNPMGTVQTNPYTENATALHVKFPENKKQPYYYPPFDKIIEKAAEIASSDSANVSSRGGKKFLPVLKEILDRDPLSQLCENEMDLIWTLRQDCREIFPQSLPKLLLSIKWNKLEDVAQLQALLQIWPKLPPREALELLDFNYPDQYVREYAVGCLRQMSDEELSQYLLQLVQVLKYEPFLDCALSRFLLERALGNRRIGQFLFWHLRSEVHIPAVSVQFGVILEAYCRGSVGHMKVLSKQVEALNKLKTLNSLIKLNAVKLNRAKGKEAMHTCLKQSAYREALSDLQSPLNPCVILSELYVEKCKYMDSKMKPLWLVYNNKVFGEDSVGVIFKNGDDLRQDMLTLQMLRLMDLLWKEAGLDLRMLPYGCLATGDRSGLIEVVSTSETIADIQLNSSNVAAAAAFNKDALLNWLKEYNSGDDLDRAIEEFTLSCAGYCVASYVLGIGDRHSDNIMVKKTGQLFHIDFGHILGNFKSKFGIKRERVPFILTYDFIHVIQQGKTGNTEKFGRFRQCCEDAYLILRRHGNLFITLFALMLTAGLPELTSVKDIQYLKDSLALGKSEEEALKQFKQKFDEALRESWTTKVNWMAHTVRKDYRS
- assay procedure: Inhibition of PI3Kbeta (unknown origin) using PIP2 as substrate incubated for 1 hr by ADP-Glo assay
// reported IC50 for each item listed
measurement label: IC50 (µM)

INSERT INTO results (molecule, measurement_label, result_modifier, result) VALUES
  ('C[C@H](Nc1nc(N)nc(N)c1C#N)c1cn(-c2cccnc2)c2cc(Cl)cnc12', 'IC50', '=', 1.66),
  ('C[C@@H](Nc1nc(N)nc(N)c1C#N)c1cn(-c2cccnc2)c2cc(Cl)cnc12 (racemic)', 'IC50', '=', 2.36),
  ('CC(Nc1nc(N)nc(N)c1C#N)c1cn(-c2cccnc2)c2cc(Cl)cnc12 (stereo not drawn)', 'IC50', '>', 10);

====

// reported IC50 for each item listed
- tgt: Phosphatidylinositol 4,5-bisphosphate 3-kinase catalytic subunit alpha isoform (Homo sapiens, UniProt P42336)
- Sequence (P42336 whole entry, canonical isoform): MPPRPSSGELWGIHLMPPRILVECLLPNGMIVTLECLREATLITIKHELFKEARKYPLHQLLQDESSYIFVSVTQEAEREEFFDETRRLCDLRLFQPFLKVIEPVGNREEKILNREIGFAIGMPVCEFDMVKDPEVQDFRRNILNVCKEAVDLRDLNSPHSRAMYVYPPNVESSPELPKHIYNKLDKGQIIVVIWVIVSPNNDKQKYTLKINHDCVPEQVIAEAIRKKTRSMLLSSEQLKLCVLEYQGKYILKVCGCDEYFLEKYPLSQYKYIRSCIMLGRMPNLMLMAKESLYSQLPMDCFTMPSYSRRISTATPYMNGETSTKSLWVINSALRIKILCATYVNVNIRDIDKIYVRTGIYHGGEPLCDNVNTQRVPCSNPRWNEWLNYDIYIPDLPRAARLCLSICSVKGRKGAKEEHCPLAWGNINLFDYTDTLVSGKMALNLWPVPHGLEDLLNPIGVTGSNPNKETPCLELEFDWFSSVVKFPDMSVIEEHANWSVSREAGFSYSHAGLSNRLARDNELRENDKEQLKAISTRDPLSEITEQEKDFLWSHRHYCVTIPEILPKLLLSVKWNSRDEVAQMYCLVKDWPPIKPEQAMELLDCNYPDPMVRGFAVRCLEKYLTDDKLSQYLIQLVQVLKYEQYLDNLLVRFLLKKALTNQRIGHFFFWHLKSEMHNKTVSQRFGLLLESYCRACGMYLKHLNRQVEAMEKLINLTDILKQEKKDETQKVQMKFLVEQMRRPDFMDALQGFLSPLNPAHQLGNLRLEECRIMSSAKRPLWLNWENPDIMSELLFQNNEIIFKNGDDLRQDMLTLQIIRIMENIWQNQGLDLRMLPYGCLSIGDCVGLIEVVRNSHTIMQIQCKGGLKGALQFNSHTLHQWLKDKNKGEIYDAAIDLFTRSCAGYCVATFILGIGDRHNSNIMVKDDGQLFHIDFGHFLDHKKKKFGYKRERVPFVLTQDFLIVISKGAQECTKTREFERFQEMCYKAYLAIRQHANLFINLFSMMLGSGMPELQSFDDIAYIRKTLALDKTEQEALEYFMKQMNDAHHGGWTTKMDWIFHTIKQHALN
- assay procedure: Inhibition of PI3Kalpha (unknown origin) using PIP2 as substrate incubated for 1 hr by ADP-Glo assay
measurement label: IC50

INSERT INTO assay_data (compound, result) VALUES
  ('CC(Nc1nc(N)nc(N)c1C#N)c1cn(-c2cccnc2)c2cc(Cl)cnc12 (stereo not drawn)', '> 10 µM'),
  ('C[C@H](Nc1nc(N)nc(N)c1C#N)c1cn(-c2cccnc2)c2cc(Cl)cnc12', '7.03 µM'),
  ('C[C@@H](Nc1nc(N)nc(N)c1C#N)c1cn(-c2cccnc2)c2cc(Cl)cnc12 (racemic)', '> 10 µM');
